# System: SEM cells
# Procedure Details: cell viability relative to DMSO control; higher = less cytotoxic
# Test Context: RPMI 5 mM glucose + 10% dialyzed FBS; 48 h; 0.000781 µM
Readout Label: cell viability (%)
Answer format: numeric, % implied, no suffix.

{"Compound": "CC\\12CCC(=O)\\C=C1CCC3C2CCC4(C)C3CCC4(O)C#C (configuration not stated)", "Target Under Test": "SEM cells", "Scale Unit": "%", "Assay Result": 112}

Proceed to the following item.
// fetch cell viability; item: `N#C/C(=C\c1ccc(O)c(O)c1)C(=O)NCc1ccccc1` ; system: SEM cells 111

* * *

# Tested on: P12-Ichikawa
# Procedure Details: cell viability relative to DMSO control; higher = less cytotoxic
# Test Context: HPLM + 10% dialyzed FBS; 48 h; 0.000781 µM
Readout Label: cell viability (%)
Hi! Could you send only the number? It should be in %, unit omitted.

The cases that follow already have their cell viability on record.
{"Molecule": "c1ccc2c(Cc3c[nH]c4ccccc34)c[nH]c2c1", "Target Under Test": "P12-Ichikawa", "Scale Unit": "%", "cell viability": 94.9}
{"Molecule": "OC1=CC=C(C=C1)\\C2=C\\OC3=C(C(=CC(=C3)O)O)C2=O", "Target Under Test": "P12-Ichikawa", "Scale Unit": "%", "cell viability": 107}
{"Molecule": "CCN1\\C=C(\\C(O)=O)C(=O)C2=C1N=C(N3CCNCC3)C(=C2)F", "Target Under Test": "P12-Ichikawa", "Scale Unit": "%", "cell viability": 75.4}
{"Molecule": "O=C(CC12CC3CC(CC(C3)C1)C2)Nc1cccc2nc(NCCNCCO)ccc12", "Target Under Test": "P12-Ichikawa", "Scale Unit": "%", "cell viability": 87.7}
{"Molecule": "N\\C1=N\\C2=C(N=C[N]2COCCO)C(=O)N1", "Target Under Test": "P12-Ichikawa", "Scale Unit": "%", "cell viability": 98.2}
{"Molecule": "CCc1cc(C(N)=S)ccn1", "Target Under Test": "P12-Ichikawa", "Scale Unit": "%", "cell viability": 116}
{"Molecule": "C[C@]12Cc3cn[nH]c3C[C@@H]1CC[C@@H]1[C@@H]2CC[C@@]2(C)[C@H]1CC[C@]2(C)O", "Target Under Test": "P12-Ichikawa", "Scale Unit": "%", "cell viability": 105}
{"Molecule": "Cc1cc(OCCC[S+](C)(=O)[O-])cc(C)c1-c1cccc(COc2ccc3c(c2)OC[C@H]3CC(=O)O)c1", "Target Under Test": "P12-Ichikawa", "Scale Unit": "%", "cell viability": 100}

Supply cell viability value. Item: `OC[C@H]1O[C@H](C[C@@H]1O)N2\C=C(F)/C(=O)NC2=O` 123

Quick one: give measured cell viability for `O=[N+]([O-])c1ncc[nH]1` 93.7

Give the measured cell viability for `O=C(NCCCCN1CCOCC1)c1cc2ccccc2o1` 119

Give the measured cell viability for `COC(=O)Nc1nc2cc(C(=O)c3ccc(F)cc3)ccc2[nH]1` 106

Give cell viability for `COc1cc(Nc2c(C#N)cnc3cc(OCCCN4CCN(C)CC4)c(OC)cc23)c(Cl)cc1Cl` 112

Give the measured cell viability for C=C1C(=O)[C@@]23C(CC[C@@H]1[C@H]2O)[C@@]12CO[C@]3(O)[C@@H](O)[C@@H]1C(C)(C)CC[C@@H]2O (some centres not stated) 108

Give the measured cell viability for `CCN(CCO)CCCOc1ccc2c(Nc3cc(CC(=O)Nc4cccc(F)c4)[nH]n3)ncnc2c1` 99.6

Please supply the value of reported cell viability for the item C[C@H](CCC(=O)O)[C@H]1CCC2C3C[C@H](O)[C@@H]4C[C@H](O)CC[C@]4(C)C3CC[C@@]21C (some centres not stated) 106

Report cell viability for CCC(C)N1\N=C/N(C1=O)C2=CC=C(C=C2)N3CCN(CC3)C4=CC=C(OC[C@H]5CO[C@@](C[N]6C=NC=N6)(O5)C7=CC=C(Cl)C=C7Cl)C=C4 (some centres not stated) 99.9
